protocolDescription: Acid dissociation constant was determined
Assay type: ADME
readoutLabel: pKa
Write no unit; give the number alone.

Oc1c2c(nn1-c1ccc(Cl)cc1)-c1ccccc1SC2
7.56

Below: the item to evaluate.
# pKa lookup, item `COc1ccc(-n2nc3c(c2O)CSc2ccccc2-3)cc1`
7.76

----------
The entries below come with measured ED50 values attached.
Species: Mus musculus
protocolDescription: Compound was evaluated for the dose required to inhibit the humoral response to 50% (immune activity)
Format: functional
Numbers only here, please. The scale is mg/kg.

Worked examples follow.
COc1ccc(-n2nc3c(c2O)CSc2ccccc2-3)cc1
150
Oc1c2c(nn1-c1ccc(Cl)c(Cl)c1)-c1ccccc1SC2
1
Oc1c2c(nn1-c1ccccc1)-c1ccccc1SC2
70
Oc1c2c(nn1-c1ccc(F)cc1)-c1ccccc1SC2
3.3
Oc1c2c(nn1-c1cccc(Cl)c1)-c1ccccc1SC2
9
CS(=O)(=O)c1ccc(-n2nc3c(c2O)CSc2ccccc2-3)cc1
170
Oc1c2c(nn1-c1ccc(C(F)(F)F)cc1)-c1ccccc1SC2
6
Oc1c2c(nn1-c1ccc(Br)cc1)-c1ccccc1SC2
2
Oc1c2c(nn1-c1cc(Cl)cc(Cl)c1)-c1ccccc1SC2
8

# ED50 lookup, item `Oc1c2c(nn1-c1ccc(Cl)cc1)-c1ccccc1SC2`
0.5

src = ChEMBL document CHEMBL1121658
